- Tested on: H460 non-small cell lung adenocarcinoma
- protocolSummary: MTT in vitro cytotoxicity, H460
- Assay type: cell-based
- conditionDetails: Homo sapiens, NCI-H460, 240 h, read-out: IC50 Run 1
resultType: IC50 (µM)

- O=S(=O)([O-])C(F)(F)F.O=S(=O)([O-])C(F)(F)F.c1cc[n+]2c(c1)-c1cccc[n+]1CC2 [Compound A]: 5.2

* * *

- Test system: H460 non-small cell lung adenocarcinoma
- protocolSummary: MTT in vitro cytotoxicity, H460
- Format: cell-based
- conditionDetails: Homo sapiens, NCI-H460, 240 h, read-out: IC50 Run 2
pIC50: −log10 of the molar value.
resultType: pIC50

- O=S(=O)([O-])C(F)(F)F.O=S(=O)([O-])C(F)(F)F.c1cc[n+]2c(c1)-c1cccc[n+]1CC2 [Compound A]: 5.26

* * *

- Tested on: MCF-7 breast adenocarcinoma
- protocolSummary: MTT in vitro cytotoxicity, MCF-7
- Type: cell-based, human
- conditionDetails: Homo sapiens, MCF7, 240 h; MCF-7, 10 day exposure, highest concentration 100 μM; read-out: IC50 Run 2
resultType: IC50

- OCc1ccc2[n+](c1)CC[n+]1ccccc1-2: 2.3 µM

* * *

- Tested on: HT-29 colon adenocarcinoma
- protocolSummary: MTT in vitro cytotoxicity, HT-29
- Format: cell-based
- conditionDetails: Homo sapiens, HT-29, 240 h, read-out: IC50 Run 3
pIC50: −log10 of the molar value.
resultType: pIC50

* O=S(=O)([O-])C(F)(F)F.O=S(=O)([O-])C(F)(F)F.c1cc[n+]2c(c1)-c1cccc[n+]1CC2 | 5.77

* * *

- System: HT-29 colon adenocarcinoma
- protocolSummary: MTT in vitro cytotoxicity, HT-29
- Format: cell-based
- conditionDetails: HT-29, 10 day exposure, highest concentration 100 μM; read-out: IC50 Run 3
resultType: IC50 (µM)

* N.N.[Cl][Pt][Cl] [Cisplatin] | 0.7

* * *

- Tested on: MCF-7 breast adenocarcinoma
- protocolSummary: MTT in vitro cytotoxicity, MCF-7
- Assay type: cell-based, human
- conditionDetails: Homo sapiens, MCF7, 240 h, read-out: IC50 Run 3
- Protocol: All were stored in the dark at 4° C. An accurately weighed amount of each compound was dissolved in DMSO and Hank's Balanced Salt Solution (Sigma) according to Table 2 below: Further dilutions were made in complete RPMI1640 cell culture medium (RPMI1640 cell culture medium supplemented with 10% foetal bovine serum, 1 mM L-glutamine, and 2 mM sodium pyruvate (all from Sigma)). […] Tumour cell growth inhibition was assessed using the MTT assay with a standard 96 hour plus an extended 10 day incubation. […]
resultType: IC50 (µM)

* O=S(=O)([O-])C(F)(F)F.O=S(=O)([O-])C(F)(F)F.c1cc[n+]2c(c1)-c1cccc[n+]1CC2 | 6.8

* * *

- System: H460 non-small cell lung adenocarcinoma
- protocolSummary: MTT in vitro cytotoxicity, H460
- Type: cell-based
- conditionDetails: Homo sapiens, NCI-H460, 240 h; H460, 10 day exposure, highest concentration 100 μM; read-out: IC50 Run 3
resultType: IC50 (µM)

- OCc1ccc2[n+](c1)CC[n+]1ccccc1-2: 5
